Entries and their Papp A→B values follow.
# run-description: Permeability from apical to basolateral side of Caco-2 cell membrane
# Assay type: ADME, cell-based
# test-conditions: human, read-out: permeability
measured-endpoint: Papp A→B

>>> meas_value("NC(=O)c1sc(-c2ccc(F)cc2)cc1N")
"19.3 ×10⁻⁶ cm/s"
>>> meas_value("NC(=O)c1nc(-c2ccccc2)oc1N")
"6.4 ×10⁻⁶ cm/s"
>>> meas_value("Cc1cc(C)c2c(N)c(C(N)=O)sc2n1")
"13.6 ×10⁻⁶ cm/s"
>>> meas_value("NC(=O)c1sc(-c2ccccc2)cc1N")
"9.3 ×10⁻⁶ cm/s"
>>> meas_value("NC(=O)c1nc(-c2ccc(C(F)(F)F)cc2)oc1N")
"18.9 ×10⁻⁶ cm/s"
>>> meas_value("NC(=O)c1sc2ncccc2c1N")
"12.8 ×10⁻⁶ cm/s"
